Target: Skp2 (UniProt Q13309 1-424, limits assumed)
Sequence (Q13309 whole entry): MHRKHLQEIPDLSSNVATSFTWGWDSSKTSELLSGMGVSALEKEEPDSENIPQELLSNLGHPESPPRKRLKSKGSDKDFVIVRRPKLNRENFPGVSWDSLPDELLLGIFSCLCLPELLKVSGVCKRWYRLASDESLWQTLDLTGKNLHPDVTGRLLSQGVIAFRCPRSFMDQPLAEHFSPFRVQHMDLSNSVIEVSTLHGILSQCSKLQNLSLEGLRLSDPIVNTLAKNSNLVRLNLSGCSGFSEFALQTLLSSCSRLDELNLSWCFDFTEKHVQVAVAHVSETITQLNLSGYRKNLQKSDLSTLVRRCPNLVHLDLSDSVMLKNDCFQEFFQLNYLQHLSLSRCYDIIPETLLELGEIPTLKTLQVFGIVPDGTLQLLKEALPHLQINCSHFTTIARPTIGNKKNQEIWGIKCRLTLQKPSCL
Assay: cell-based or functional assay
Starred links: 1 amine or outer side, 2 acyl side, 3 side chain; linkers in the order of their positions; H or OH if unused. Non-standard residues stand in square brackets, D forms with d. *: point of attachment. Phe(4-NO2) = N[C@@H](Cc1ccc([N+](=O)[O-])cc1)C(=O)O; Benzenesulfonyl(4-OMe) = COc1ccc(S(=O)(=O)*)cc1; 4‑(BuO)‑PhSO2 = CCCCOc1ccc(S(=O)(=O)*)cc1; Phe(3-Cl) = N[C@@H](Cc1cccc(Cl)c1)C(=O)O; Phe(3-F) = N[C@@H](Cc1cccc(F)c1)C(=O)O; Phe(4-F) = N[C@@H](Cc1ccc(F)cc1)C(=O)O; Suc = O=C(CCC(=O)[*:2])[*:1]; Tos = Cc1ccc(S(=O)(=O)*)cc1
# 1 = % Inhibition Skp2 @ (100 µM) below 7% (exclusive); -1 = % Inhibition Skp2 @ (100 µM) at/above 7%

Example results:
binder	category
{Benzenesulfonyl(4-OMe)}-[dD]EG[Phe(3-F)]WE-NH2 (SMILES COc1ccc(S(=O)(=O)N[C@H](CC(=O)O)C(=O)N[C@@H](CCC(=O)O)C(=O)NCC(=O)N[C@@H](Cc2cccc(F)c2)C(=O)N[C@@H](Cc2c[nH]c3ccccc23)C(=O)N[C@@H](CCC(=O)O)C(N)=O)cc1, also called UBP022) [4-(MeO)-PhSO2-dEGF(3F)WE-NH2]	-1
Suc-EG[Phe(4-F)][Phe(4-NO2)]E-NH2 (SMILES NC(=O)[C@H](CCC(=O)O)NC(=O)[C@H](Cc1ccc([N+](=O)[O-])cc1)NC(=O)[C@H](Cc1ccc(F)cc1)NC(=O)CNC(=O)[C@H](CCC(=O)O)NC(=O)CCC(=O)O) [Suc-EGF(4F)F(4NO2)E-NH2]	1
{4‑(BuO)‑PhSO2}-[dD]EG[Phe(3-F)]WE-NH2 (also called UBP030) [4-(BuO)-PhSO2-dEGF(3F)WE-NH2]	-1
Tos-[dD]EG[Phe(3-Cl)]WE-NH2 (SMILES Cc1ccc(S(=O)(=O)N[C@H](CC(=O)O)C(=O)N[C@@H](CCC(=O)O)C(=O)NCC(=O)N[C@@H](Cc2cccc(Cl)c2)C(=O)N[C@@H](Cc2c[nH]c3ccccc23)C(=O)N[C@@H](CCC(=O)O)C(N)=O)cc1, also called UBP034) [Ts-dEGF(3Cl)WE-NH2]	1

Turning now to a further record.
Please state whether % Inhibition Skp2 @ (100 µM) is below 7% for Tos-[dD]EG[Phe(3-F)]WD-NH2 (SMILES Cc1ccc(S(=O)(=O)N[C@H](CC(=O)O)C(=O)N[C@@H](CCC(=O)O)C(=O)NCC(=O)N[C@@H](Cc2cccc(F)c2)C(=O)N[C@@H](Cc2c[nH]c3ccccc23)C(=O)N[C@@H](CC(=O)O)C(N)=O)cc1, also called UBP027) [Ts-dEGF(3F)WD-NH2]
1

Measured values drawn from patent US20190106460A1 for this set.
